# system tested: TLR8 (Homo sapiens, UniProt Q9NR97)
# Construct: Human peripheral blood mononuclear cells (PBMCs) consist of lymphocytes, monocytes and dendritic cells that express TLR7, TLR8 and TLR9; endogenous in cells; host or cells: cryopreserved human PBMCs from healthy donors
# Sequence (Q9NR97 27-1041): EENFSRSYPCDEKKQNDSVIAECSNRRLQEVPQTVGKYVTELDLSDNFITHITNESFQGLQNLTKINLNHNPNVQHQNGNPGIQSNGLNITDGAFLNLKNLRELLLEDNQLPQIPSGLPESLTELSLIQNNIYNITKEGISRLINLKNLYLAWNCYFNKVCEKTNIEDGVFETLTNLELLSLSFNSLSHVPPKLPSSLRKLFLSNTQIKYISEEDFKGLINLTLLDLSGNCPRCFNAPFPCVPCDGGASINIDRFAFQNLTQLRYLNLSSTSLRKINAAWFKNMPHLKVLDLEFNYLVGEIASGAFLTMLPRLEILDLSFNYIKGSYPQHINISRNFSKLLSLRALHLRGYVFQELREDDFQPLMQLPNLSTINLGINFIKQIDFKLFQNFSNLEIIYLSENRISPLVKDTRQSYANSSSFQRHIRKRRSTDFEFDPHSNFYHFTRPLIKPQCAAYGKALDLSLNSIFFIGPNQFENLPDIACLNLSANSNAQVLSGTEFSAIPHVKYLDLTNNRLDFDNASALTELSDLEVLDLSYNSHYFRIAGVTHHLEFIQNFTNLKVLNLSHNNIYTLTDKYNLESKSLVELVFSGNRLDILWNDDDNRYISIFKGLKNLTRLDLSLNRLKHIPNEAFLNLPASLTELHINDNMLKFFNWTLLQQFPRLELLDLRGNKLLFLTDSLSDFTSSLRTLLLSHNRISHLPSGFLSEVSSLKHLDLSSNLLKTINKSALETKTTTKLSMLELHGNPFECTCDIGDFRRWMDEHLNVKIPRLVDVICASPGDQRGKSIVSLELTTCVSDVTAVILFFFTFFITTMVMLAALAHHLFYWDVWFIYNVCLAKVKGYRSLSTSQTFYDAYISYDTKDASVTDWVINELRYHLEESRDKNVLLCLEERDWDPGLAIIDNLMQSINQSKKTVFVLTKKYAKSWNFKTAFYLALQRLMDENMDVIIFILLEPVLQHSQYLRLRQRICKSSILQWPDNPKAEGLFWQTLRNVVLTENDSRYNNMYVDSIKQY
# assay notes: TLR8 human PBMC cell-based assay (antagonist, Compound A stimulated cytokine release)
# test settings: human PBMCs; TLR8 agonist Compound A 800 nM, 6 hours; cytokines (TNFa and IL 12p40) in supernatant; read-out: TLR-8 EC50
Recorded EC50 determines the group label, using Low = under 3 nM, Medium = from 3 nM up to 20 nM, High = 20 nM and over

Solved entries:
Which bin, given its EC50, does Cc1cc(-c2[nH]c3cc(C(=O)N(C)[C@@H]4CCNC[C@H]4F)sc3c2C(C)C)cn2ncnc12 occupy?
Medium

Which bin, given its EC50, does Cc1cc(-c2[nH]c3cc(C(=O)N(C4CCNCC4)C4CC4)sc3c2C(C)C)cn2ncnc12 occupy?
High

Which bin, given its EC50, does Cc1cc(-c2[nH]c3cc(C(=O)N4CCC[C@H]4CN4CCCC4)sc3c2C(C)C)cn2ncnc12 occupy?
High

Which bin, given its EC50, does Cc1cc(-c2[nH]c3cc(C4CCCC5(CNC5)C4)sc3c2C(C)C)cn2ncnc12 (stereo not shown) occupy?
High

Which bin, given its EC50, does Cc1cc(-c2[nH]c3cc(C(=O)N4C[C@@H](N)C[C@@H](C(F)(F)F)C4)sc3c2C(C)C)cn2ncnc12 occupy?
High

Others:
Which bin, given its EC50, does Cc1cc(-c2[nH]c3cc(C(=O)N(C)C4CCC(N5CC(F)(F)C5)CC4)sc3c2C(C)C)cn2ncnc12 (stereo not shown) occupy?
High

Which bin, given its EC50, does Cc1cc(-c2[nH]c3cc(C4CC5CCC4CN5)sc3c2C(C)C)cn2ncnc12 (stereo not shown) occupy?
Medium

Which bin, given its EC50, does Cc1cc(-c2[nH]c3cc(C(=O)N(C)Cc4cccnc4)sc3c2C(C)C)cn2ncnc12 occupy?
High

Which bin, given its EC50, does Cc1cc(-c2[nH]c3cc(-c4cn(C5CCNCC5)nn4)sc3c2C(C)C)cn2ncnc12 occupy?
Medium

Which bin, given its EC50, does Cc1cc(-c2[nH]c3cc(C(=O)N(C)[C@@H]4CCCNC4)sc3c2C(C)C)cn2ncnc12 occupy?
Medium

Which bin, given its EC50, does Cc1cc(-c2[nH]c3cc(-c4ccc5c(c4)CNC5)sc3c2C(C)C)cn2ncnc12 occupy?
Low

Which bin, given its EC50, does Cc1cc(-c2[nH]c3cc(C(=O)N4C[C@@H](N)CC[C@@H]4C)sc3c2C(C)C)cn2ncnc12 occupy?
High
